System: Arachidonate-Induced Bronchospasm (lipoxygenase)
test_details: Pulmonary Mechanics Assay: arachidonate-induced bronchospasm with indomethacin (SRS-A response, indicative of lipoxygenase inhibition)
Type: in vivo, male Hartley guinea pigs
condition_label: Cavia porcellus, ID dosing, 50 mg/kg, guinea pig, read-out: Inhibition of Arachidonate-Induced Bronchospasm (ID Dosing), % Inh. with Indomethacin

| compound | inequality_sign | inhibition in vivo at 50 mg/kg, % |
| --- | --- | --- |
| CN(O)C(=O)NCCc1ccc(Cl)c(Cl)c1 | < | 20 |
| COc1ccc([C@@H]2C[C@H]2NC(=O)N(C)O)cc1OC (relative stereo) | = | 45 |
| COc1ccc(CCCNC(=O)N(C)O)cc1OC | = | 59 |
| COc1ccc(CCNC(=O)NO)cc1OC | = | 56 |
| COc1cc(CCNC(=O)N(C)O)ccc1OCc1ccccc1 | = | 28 |

---

Tested on: Arachidonate-Induced Bronchospasm (cyclooxygenase)
test_details: Pulmonary Mechanics Assay: arachidonate-induced bronchospasm without indomethacin (indicative of cyclooxygenase inhibition)
Assay type: in vivo, male Hartley guinea pigs
condition_label: Cavia porcellus, ID dosing, 50 mg/kg, guinea pig, read-out: Inhibition of Arachidonate-Induced Bronchospasm (ID Dosing), % Inh. without Indomethacin
Readings of inhibition in vivo at 50 mg/kg for the listed compounds

| compound | measured_on | inhibition in vivo at 50 mg/kg |
| --- | --- | --- |
| COc1cc(CCNC(=O)N(C)O)ccc1O | Arachidonate-Induced Bronchospasm (cyclooxygenase) | < 20% |
| CN(O)C(=O)NCCOc1ccc(-c2ccccc2)cc1 | Arachidonate-Induced Bronchospasm (cyclooxygenase) | < 20% |
| CN(O)C(=O)NCCc1ccc(Cl)c(Cl)c1 | Arachidonate-Induced Bronchospasm (cyclooxygenase) | < 20% |
| COc1ccc(CCNC(=O)N(O)C(C)C)cc1OC | Arachidonate-Induced Bronchospasm (cyclooxygenase) | < 20% |
| COc1cccc(CCNC(=O)N(C)O)c1OC | Arachidonate-Induced Bronchospasm (cyclooxygenase) | < 20% |
| COc1ccc(C2C3C=CC(C3)C2NC(=O)N(C)O)cc1OC (stereo not shown) | Arachidonate-Induced Bronchospasm (cyclooxygenase) | 35% |
| CN(O)C(=O)NCCCc1ccc(-c2ccccc2)cc1 | Arachidonate-Induced Bronchospasm (cyclooxygenase) | < 20% |
| COc1cc(CCNC(=O)N(C)O)ccc1OCc1ccccc1 | Arachidonate-Induced Bronchospasm (cyclooxygenase) | < 20% |
| CN(O)C(=O)NCCc1ccc2c(c1)OCO2 | Arachidonate-Induced Bronchospasm (cyclooxygenase) | < 20% |
| COc1ccc(CCCNC(=O)N(C)O)cc1OC | Arachidonate-Induced Bronchospasm (cyclooxygenase) | 52% |
| COc1ccc(CCCN(CCCc2ccc(OC)c(OC)c2)C(=O)N(C)O)cc1OC | Arachidonate-Induced Bronchospasm (cyclooxygenase) | < 20% |
| CN(O)C(=O)NCCCCCCCOc1ccc(-c2ccccc2)cc1 | Arachidonate-Induced Bronchospasm (cyclooxygenase) | -9% |
| CN(O)C(=O)NCCCOc1ccc(-c2ccccc2)cc1 | Arachidonate-Induced Bronchospasm (cyclooxygenase) | -74% |

---

Listing: inhibition in vivo at 50 mg/kg of selected molecules
Tested on: Arachidonate-Induced Bronchospasm (cyclooxygenase)
test_details: Pulmonary Mechanics Assay: arachidonate-induced bronchospasm without indomethacin (indicative of cyclooxygenase inhibition)
Format: in vivo, male Hartley guinea pigs
condition_label: Cavia porcellus, ID dosing, 50 mg/kg, guinea pig, read-out: Inhibition of Arachidonate-Induced Bronchospasm (ID Dosing), % Inh. without Indomethacin
measure_name: inhibition in vivo at 50 mg/kg

| compound_string | measure_name | result |
| --- | --- | --- |
| CN(O)C(=O)NCCCCOc1ccc(-c2ccccc2)cc1 | inhibition in vivo at 50 mg/kg | < 20% |
| CN(O)C(=O)NCc1ccc(-c2ccccc2)cc1 | inhibition in vivo at 50 mg/kg | < 20% |
| CN(O)C(=O)NCCCCCOc1ccc(-c2ccccc2)cc1 | inhibition in vivo at 50 mg/kg | < 20% |

---

measured_on: 5-lipoxygenase (Rattus norvegicus)
Construct: The cell-free homogenate was prepared by sonication of the cells followed by centrifugation at 40,000 xg; endogenous in cells; host or cells: RBL-1 (rat basophilic leukemia) cells, 40,000 xg supernatant of the sonicate
Sequence (P12527 whole entry): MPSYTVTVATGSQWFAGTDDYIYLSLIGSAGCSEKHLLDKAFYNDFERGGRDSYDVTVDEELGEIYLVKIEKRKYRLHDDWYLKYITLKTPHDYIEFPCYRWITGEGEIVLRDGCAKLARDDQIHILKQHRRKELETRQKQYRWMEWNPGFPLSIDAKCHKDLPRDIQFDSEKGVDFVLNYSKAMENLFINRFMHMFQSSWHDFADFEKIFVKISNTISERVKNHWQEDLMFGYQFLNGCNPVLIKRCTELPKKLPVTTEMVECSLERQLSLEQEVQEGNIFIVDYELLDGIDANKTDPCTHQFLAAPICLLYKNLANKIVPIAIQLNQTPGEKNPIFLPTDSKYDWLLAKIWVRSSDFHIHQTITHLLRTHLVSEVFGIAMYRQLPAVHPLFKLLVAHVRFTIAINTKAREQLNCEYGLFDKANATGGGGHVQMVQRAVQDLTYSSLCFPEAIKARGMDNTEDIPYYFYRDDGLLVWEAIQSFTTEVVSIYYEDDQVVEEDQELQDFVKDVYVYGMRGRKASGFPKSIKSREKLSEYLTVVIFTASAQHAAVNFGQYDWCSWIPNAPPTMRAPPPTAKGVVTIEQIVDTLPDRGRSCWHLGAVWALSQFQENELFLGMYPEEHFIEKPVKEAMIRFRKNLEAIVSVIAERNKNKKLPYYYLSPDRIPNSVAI
test_details: Inhibition of 5-lipoxygenase in cell-free homogenate of rat basophilic leukemia (RBL-1) cells
Format: biochemical
condition_label: 3 μM; RBL-1 cell-free homogenate; read-out: Inhibition of 5-Lipoxygenase, % Inh. @ 3 μM
Attribute: inhibition at 3 µM
measure_name: inhibition at 3 µM

| compound | measure_name | result |
| --- | --- | --- |
| COc1ccc(CCNC(=O)N(C)O)c(OC)c1 [Example 49] | inhibition at 3 µM | 99% |
| COc1ccc(CCNC(=O)NO)cc1OC [Example 72] | inhibition at 3 µM | 21% |
| COc1ccc(CCNC(=O)N(C)O)cc1OCc1ccccc1 [Example 69] | inhibition at 3 µM | 41% |
